# Assay procedure: Pharmacokinetics assay in rats after intragastrical administration
# Assay type: in vivo, SD rats
# Condition label: Sprague-Dawley, rat, plasma, po; 30 mg/kg, intragastric, male rats; read-out: Residence time MRT
Measurement label: MRT (h)

I: COc1ccc(-n2c(COC(F)F)nnc2N2CC(n3cc(C)c4cc(F)ccc43)C2)cn1 [Example 34]
II: COCc1nnc(N2CC(c3cccc4cc(F)ccc34)C2)n1-c1ccc(OC)nc1 [Example 2]
Prompt: // compare: I vs II , metric MRT, want the smaller Pick one; state its label.
Completion: II
(II: 2.46 h, I: 3.84 h)

----------
# Target desc: human V1bR (Homo sapiens)
# Assay procedure: Inhibition activity on human V1bR (Fluo-4 calcium assay, HEK293/human V1bR pool cells)
# Condition label: vasopressin 3 nM
pIC50: −log10 of the molar value.
Measurement label: pIC50

Answered examples (3):
CCOCc1nnc(N2CC(N3CCCc4cc(F)ccc43)C2)n1-c1ccc(OC)nc1; 4.21
COCc1nnc(N2CC(n3cc(C)c4cc(F)ccc43)C2)n1-c1ccc(OC)nc1; 4.70
COCc1nnc(N2CC(C3CCOc4cc(F)ccc43)C2)n1-c1ccc(OC)nc1 (centres unmarked); 4.41

I: COCc1nnc(N2CC(c3cn(C)c4cc(F)ccc34)C2)n1-c1ccc(OC)nc1
II: COCc1nnc(N2CC(N3C(=O)COc4cc(F)ccc43)C2)n1-c1ccc(OC)nc1
Prompt: // compare: I vs II , metric pIC50, want the smaller Pick one; state its label.
Completion: II

A: COCc1nnc(N2CC(n3cc(Cl)c4cc(F)ccc43)C2)n1-c1ccc(OC)nc1
B: COCc1nnc(N2CC(c3ccnc4cc(F)ccc34)C2)n1-c1ccc(OC)nc1
Prompt: Of the two listed items, A and B , which carries the larger pIC50 figure? Pick one; state its label.
Completion: A
(A: 4.91, B: 3.35)

// provenance: patent US10889569B2
